# SYSTEM_UNDER_TEST: Ylr278c (UniProt Q05854)
# Sequence (Q05854 whole entry): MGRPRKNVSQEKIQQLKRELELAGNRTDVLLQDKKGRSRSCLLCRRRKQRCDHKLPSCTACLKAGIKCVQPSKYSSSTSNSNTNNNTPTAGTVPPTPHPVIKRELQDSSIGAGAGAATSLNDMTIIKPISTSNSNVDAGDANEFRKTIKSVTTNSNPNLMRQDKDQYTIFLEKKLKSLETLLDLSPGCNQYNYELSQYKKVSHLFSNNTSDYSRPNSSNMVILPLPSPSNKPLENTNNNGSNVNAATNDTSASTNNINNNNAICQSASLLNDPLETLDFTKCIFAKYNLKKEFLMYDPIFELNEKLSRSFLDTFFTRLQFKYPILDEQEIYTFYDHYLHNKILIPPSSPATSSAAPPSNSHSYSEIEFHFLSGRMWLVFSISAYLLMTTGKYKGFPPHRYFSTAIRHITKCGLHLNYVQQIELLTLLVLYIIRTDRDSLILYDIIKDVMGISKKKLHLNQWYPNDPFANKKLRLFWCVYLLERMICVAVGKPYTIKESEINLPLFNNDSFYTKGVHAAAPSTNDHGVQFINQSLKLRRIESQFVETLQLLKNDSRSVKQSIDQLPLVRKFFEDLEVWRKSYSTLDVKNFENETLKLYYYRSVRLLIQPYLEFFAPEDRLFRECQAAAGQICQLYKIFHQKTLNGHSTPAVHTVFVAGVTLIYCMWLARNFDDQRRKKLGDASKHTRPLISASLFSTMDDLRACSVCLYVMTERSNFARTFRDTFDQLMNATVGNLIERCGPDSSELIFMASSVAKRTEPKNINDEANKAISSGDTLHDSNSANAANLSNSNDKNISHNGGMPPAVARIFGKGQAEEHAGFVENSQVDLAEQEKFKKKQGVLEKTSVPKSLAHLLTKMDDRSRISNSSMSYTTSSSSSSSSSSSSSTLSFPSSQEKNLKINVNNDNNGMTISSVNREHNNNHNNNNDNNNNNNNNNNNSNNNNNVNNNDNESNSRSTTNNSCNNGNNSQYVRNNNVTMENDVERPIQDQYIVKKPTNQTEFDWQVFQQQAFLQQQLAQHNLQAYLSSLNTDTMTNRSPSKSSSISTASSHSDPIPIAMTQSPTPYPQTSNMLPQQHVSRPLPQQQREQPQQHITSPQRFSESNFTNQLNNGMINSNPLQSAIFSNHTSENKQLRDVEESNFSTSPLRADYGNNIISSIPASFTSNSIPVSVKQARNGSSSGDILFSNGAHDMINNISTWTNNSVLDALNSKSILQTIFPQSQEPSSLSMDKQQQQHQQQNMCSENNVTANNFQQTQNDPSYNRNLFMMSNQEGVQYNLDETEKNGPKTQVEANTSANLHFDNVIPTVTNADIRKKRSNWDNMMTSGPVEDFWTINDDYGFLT
# TEST_NAME: PBM E-score (8-mer binding enrichment) (E-score (-0.5 to 0.5)); higher = stronger / more preferred TF binding
# CONDITION: protein concentration: 200 nM; construct: GST-DNA-binding domain
Over roughly 33,000 sequences, “E-score (-0.5 to 0.5)” has its median near -0.054; the highest 2% begin near 0.39. This excerpt belongs to a sample that is enriched for the highest values.
Give measured PBM E-score for each item. Keep answers brief.
Answers are plain numbers.

CATTCCTA
-0.212
CTGCCGGA
0.355
ATGCCGGC
0.372

Kindly give each listed record's PBM E-score.
1. GTGGTATA
2. CGAACGGA
3. GACCTAAC
4. CCCAGGAG

## Result
[-0.188, 0.312, 0.0677, -0.188]
